- TEST SYSTEM: T1, Recombinant human CD4 (R&D Systems, Cat. 10327-CD) (human, UniProt P01730 26-390, limits assumed)
- T1 construct: Bought protein; also called huCD4
- METHOD NOTES: BLI (Octet Red384), purified antibody on anti-mouse Fc sensors, human CD4 100/50/25 nM, global 1:1 fit;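 note: antibodies loaded at 10 µg/mL, curves fitted across association and dissociation phases, with an unrelated mouse-derived antibody serving as internal reference control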
OBSERVATION TYPE: Response
Keep the answer to the number alone.

Give its Response value. Item: 75110_08G08A (antibody, V domains shown, Tested as antibody purified from AlivaMab Mouse Kappa hybridoma (human V regions, kappa light chain, mouse Fc captured by anti-mouse Fc sensors)) VH: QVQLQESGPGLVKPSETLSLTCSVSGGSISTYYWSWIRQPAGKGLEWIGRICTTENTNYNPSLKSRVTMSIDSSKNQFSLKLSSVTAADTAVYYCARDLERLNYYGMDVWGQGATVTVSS VL: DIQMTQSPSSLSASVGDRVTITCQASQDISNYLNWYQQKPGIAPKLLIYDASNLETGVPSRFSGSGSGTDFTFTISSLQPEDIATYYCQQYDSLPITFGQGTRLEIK
0.15

What do you have for 75110_08H11A (antibody, V domains shown, Tested as antibody purified from AlivaMab Mouse Kappa hybridoma (human V regions, kappa light chain, mouse Fc captured by anti-mouse Fc sensors); also called 75110_08H1lA) VH: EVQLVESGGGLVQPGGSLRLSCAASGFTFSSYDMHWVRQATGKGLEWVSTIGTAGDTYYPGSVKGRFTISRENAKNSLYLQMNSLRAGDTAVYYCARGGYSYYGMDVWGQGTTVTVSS VL: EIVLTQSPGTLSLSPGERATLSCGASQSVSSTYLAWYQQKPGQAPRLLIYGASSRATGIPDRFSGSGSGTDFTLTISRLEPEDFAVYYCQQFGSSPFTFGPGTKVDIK ?
0.04

And what about the binder 75110_07J02A (antibody, V domains shown, Tested as antibody purified from AlivaMab Mouse Kappa hybridoma (human V regions, kappa light chain, mouse Fc captured by anti-mouse Fc sensors); also called 75110_07102A) VH: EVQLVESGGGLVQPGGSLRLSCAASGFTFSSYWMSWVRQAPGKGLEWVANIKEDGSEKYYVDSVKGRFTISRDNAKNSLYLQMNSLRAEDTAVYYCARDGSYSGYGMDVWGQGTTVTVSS VL: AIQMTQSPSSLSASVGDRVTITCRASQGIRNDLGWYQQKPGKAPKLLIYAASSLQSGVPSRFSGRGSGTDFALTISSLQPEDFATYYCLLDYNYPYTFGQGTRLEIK ?
0.1

Item: 75110_06C16A (antibody, V domains shown, Tested as antibody purified from AlivaMab Mouse Kappa hybridoma (human V regions, kappa light chain, mouse Fc captured by anti-mouse Fc sensors)) VH: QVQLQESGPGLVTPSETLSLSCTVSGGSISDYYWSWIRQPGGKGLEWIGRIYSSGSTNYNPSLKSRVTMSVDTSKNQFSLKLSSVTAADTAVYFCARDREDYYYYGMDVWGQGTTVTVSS VL: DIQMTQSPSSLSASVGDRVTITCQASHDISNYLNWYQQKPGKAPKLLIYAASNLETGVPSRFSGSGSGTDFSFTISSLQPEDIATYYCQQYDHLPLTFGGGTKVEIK
0.15

75110_06D16A (antibody, V domains shown, Tested as antibody purified from AlivaMab Mouse Kappa hybridoma (human V regions, kappa light chain, mouse Fc captured by anti-mouse Fc sensors)) VH: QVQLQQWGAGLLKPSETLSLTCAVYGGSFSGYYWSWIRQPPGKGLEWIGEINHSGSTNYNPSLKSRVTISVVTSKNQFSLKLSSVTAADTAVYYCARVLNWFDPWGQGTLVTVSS VL: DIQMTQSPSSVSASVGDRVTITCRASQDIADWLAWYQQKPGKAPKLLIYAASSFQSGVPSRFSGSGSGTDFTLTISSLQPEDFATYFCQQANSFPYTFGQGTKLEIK ?
0.25

Values compiled from patent US20220112288A1.
